System: NCI/ADR-RES ovarian
Experiment: NCI-60 one-dose screen, 48 h
Details: 10 µM unless noted
The panel holds about 83,000 compounds, 20% with a hit somewhere; the sample as a whole holds those more often. Activity calls are given as the source filed them. Rule for the calls: active = growth percent below 10; inactive = the rest.
Select the correct class. Options are true (active), false (inactive) and nothing else.

See these solved cases before continuing.
[[record]]
compound = "Nc1nc2ncc(CCNc3ccc(C(=O)NC(CCC(=O)O)C(=O)O)cc3)nc2c(=O)[nH]1 (stereo not drawn)"
group_label = "true"

[[record]]
compound = "CCCOc1ccc2c(c1)CC[C@@H]1[C@@H]2CC[C@@]2(C)[C@H]1CC[C@]2(C)O"
group_label = "false"

[[record]]
compound = "OCc1nnn(-c2ccccc2)c1CO"
group_label = "false"

[[record]]
compound = "Cc1ccc(C=C2C(Cl)=C(Cl)C(Cl)=C2Cl)cc1"
group_label = "true"

[[record]]
compound = "O=C(Nc1ccc(Cl)cc1Cl)Nc1ccc(-c2cccnc2)cc1N1CCC(CO)CC1"
group_label = "false"


What classification did CN(C)c1ccc2c(c1)/C(=N/O)c1ccccc1-2 end up with in this test?
false

What classification did COc1cc(/C=C2\CCC/C(=C\c3ccc(OCC4CO4)c(OC)c3)C2=O)ccc1OCC1CO1 (stereo not drawn) end up with in this test?
false

What classification did COc1ccc2nc3cc(Cl)ccc3c(Nc3cc(C(C)C)c(O)cc3C)c2c1 end up with in this test?
false

What classification did CCOC(=O)c1ccccc1OC(=O)NNc1ccccc1 end up with in this test?
false

What classification did O=C1OCCCCCCCCCC#Cc2ccccc21 end up with in this test?
false

What classification did C[C@]12C[C@H](O)[C@H]3[C@@H](CCC4=CC(=O)CC[C@@]43C)[C@@H]1CC[C@@H]2C(=O)CO end up with in this test?
true

What classification did CC(=O)c1nc2ccccc2n1CCn1cc(CC(N)C(=O)O)c2ccccc21 (stereo not drawn) end up with in this test?
false

What classification did c1ccc2c(c1)[nH]c1c2cc[n+]2cc3c(cc12)CCCC3 end up with in this test?
false

What classification did N#Cc1ccc(NC(=O)Nc2ccc(Oc3ccc(NC(=O)Nc4ccc(C#N)cc4)cc3)cc2)cc1 end up with in this test?
false
